Target: T1, human GPC3 on CHO-K1-human GPC3 cells (CHOK1-hGPC3.2B5) (human, UniProt P51654 25-554)
T1 construct: whole, on cells
Assay: FACS, CHOK1-hGPC3.2B5 cells;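 note: flow cytometry of humanized antibodies binding to the cells over one hour in the cold, read as cell mean fluorescence intensity, with EC50 obtained by curve fitting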
measure name: Max MFI
I'd appreciate it if you included the unit after the number.

binder	recorded result
hAb006LH3L1d (antibody, human IgG1, V domains shown, Humanized F3.38.7; VH H3 + VL L1d; expressed as human IgG1) VH: EVQLVQSGAEVKKPGSSVKVSCKASGYTFTDYEIHWVRQAPGQGLEWMGAIDPKTGNTAYNQKFMGRVTLTADKSTSTAYMELSSLRSEDTAVYYCTRYFSFAYWGQGTLVTVSS VL: DIVMTQTPLSLPVTPGEPASISCRSSQTFVHSNSNTYLQWYLQKPGQSPQLLIYKVSNRFSGVPDRFSGSGSGTDFTLKISRVEAEDVGVYYCFQGSHVPYTFGQGTKLEIK	17600 MFI

Next:
Quick one: Max MFI for hAb003LH1L1a (antibody, human IgG1, V domains shown, Humanized F2.154.1; VH H1 + VL L1a; expressed as human IgG1) VH: EVQLVQSGAEVKKPGSSVKVSCKASGYTFSDYEMHWVRQAPGQGLEWMGTIDPETGNTAYTQKFMDRVTITADKSTSTAYMELSSLRSEDTAVYYCTRGYSFTYWGQGTLVTVSS VL: DIVMTQTPLSLPVTPGEPASISCRSSQNIVHSDGNTYLQWYLQKPGQSPQLLIFKVSNRFSGVPDRFSGSGSGTDFTLKISRVEAEDVGVYYCFQGSHVPFTFGQGTKLEIK ?
2070 MFI
